Data provenance is ChEMBL document CHEMBL1151783.

assay: Solubility in phosphate buffer saline after 2 hrs; assay type: physicochemical; conditions: phosphate buffered saline

{"columns": ["Smiles String", "solubility at 2 h"],
 "data": [
  ["COc1cc2c(c(OC)c1OC)-c1ccc(OC)c(=O)cc1[C@@H](NC(=O)CCCCCNC(=O)COc1ccc(/C=C/C3=[N+]4C(=Cc5ccc(-c6ccc[nH]6)n5[B-]4(F)F)C=C3)cc1)CC2", "< 10 µM"],
  ["COc1cc2c(c(OC)c1OC)-c1ccc(OC)c(=O)cc1[C@@H](NC(C)=O)CC2", "> 250 µM"],
  ["COc1cc2c(c(OC)c1OC)-c1ccc(OC)c(=O)cc1[C@@H](NC(=O)CCC1=[N+]3C(=Cc4cccn4[B-]3(F)F)C=C1)CC2", "32 µM"]
]}
